# MEASUREMENT DESCRIPTION: Solubility measurement in distilled water
# Format: physicochemical
# TEST PARAMETERS: 37 °C, thermodynamic from solid
MEASUREMENT LABEL: solubility at 24 h (µg/mL)

COMPOUND	RESULT
CC(C)=CCC[C@](C)(O)[C@H]1CC[C@]2(C)[C@@H]1[C@H](O)C[C@@H]1[C@@]3(C)CC[C@H](O[C@@H]4O[C@H](CO)[C@@H](O)[C@H](O)[C@H]4O)C(C)(C)[C@@H]3CC[C@]12C [Rh2, Ginsenoside Rh2]	74

Source of measurements: paper PMC10193561
